Listing of recorded IC50 by entry.
# SUBJECT OF TEST: UniProt:Q9NR96
# ASSAY INFO: TLR9 inhibition reporter assay (HEK-Blue SEAP)
# CONDITION INFO: read-out: TLR9 IC50; HEK-Blue cells overexpressing human TLR9, ODN2006 5 nM stimulation, SEAP reporter

1. Cc1c(-c2[nH]c3cnc(N4CCN(CC5CCOCC5)CC4)c(C)c3c2C(C)C)cn2ncnc2c1C ... 5900 nM
2. COc1cc(-c2[nH]c3cnc(C4CCC(N(C)C5COC5)CC4)c(F)c3c2C(C)C)cn2ncnc12 (stereo not drawn) [Example 197] ... 1570 nM
3. COc1cc(-c2[nH]c3cnc(N4CC5(CN(CC6CC6)C5)C4)c(F)c3c2C(C)C)cn2ncnc12 ... 5470 nM
4. Cc1cc(-c2[nH]c3cnc(C4CCN(C(=O)CN(C)C)CC4)c(F)c3c2C(C)C)cc(C)n1 ... 1550 nM
5. Cc1c(-c2[nH]c3cnc(C4CCC(NCC(C)(C)C)CC4)c(C)c3c2C(C)C)cn2ncnc2c1C (stereo not drawn) [Example 58] ... 692 nM

Challenge: Any idea what IC50 was measured for COc1cc(-c2[nH]c3cnc(C4CCC(N5CC6(COC6)C5)C4)cc3c2C(C)C)cn2ncnc12 (stereo not drawn) [Example 209] ?
Response given: 1080 nM

Challenge: # lookup: IC50 of Cc1c(-c2[nH]c3cnc(N4CCN(CC5CC5)CC4)c(F)c3c2C(C)C)cn2ncnc2c1C
Response given: 6110 nM

Challenge: Using the record for Cc1c(-c2[nH]c3cnc(C4CCC(NC5CCOC5)CC4)cc3c2C(C)C)cn2ncnc2c1C (stereo not drawn) [Example 349] , report its IC50.
Response given: 344 nM

Challenge: Data request, read-out IC50, for COCCNC1CCC(c2cc3c(C(C)C)c(-c4cn5ncnc5c(C)c4C)[nH]c3cn2)CC1 (stereo not drawn) [Example 348]
Response given: 468 nM

Challenge: Return reported IC50; argument: COc1cc(-c2[nH]c3cnc(C4CCC(NCC(C)(C)F)CC4)c(C)c3c2C(C)C)cn2ncnc12 (stereo not drawn) [Example 271]
Response given: 333 nM

Challenge: Looking for the measured IC50 of COc1cc(-c2[nH]c3cnc(C4CCN(CCS(C)(=O)=O)CC4)c(C)c3c2C(C)C)cn2ncnc12 , can you help?
Response given: 188 nM

Challenge: IC50 for COc1cc(-c2[nH]c3cnc(C4CCC(N5CC6(COC6)C5)CC4)c(F)c3c2C(C)C)cn2ncnc12 (stereo not drawn) ?
Response given: 293 nM

Challenge: IC50 lookup needed for Cc1cc(-c2[nH]c3cnc(N4CCNCC4)cc3c2C(C)C)cn2ncnc12 , thanks.
Response given: 2680 nM

Challenge: Requested read-out: IC50. Entry: COc1cc(-c2[nH]c3cnc(C4CCC(NCC(C)(C)C)CC4)cc3c2C(C)C)cn2ncnc12 (stereo not drawn) [Example 325]
Response given: 512 nM

Challenge: // lookup IC50 for Cc1c(-c2[nH]c3cnc(C4CCC(NCC(F)F)CC4)cc3c2C(C)C)cn2ncnc2c1C (stereo not drawn) [Example 336]
Response given: 4000 nM

###

# SUBJECT OF TEST: human TLR9 (Homo sapiens (Human), UniProt Q9NR96)
# Sequence (Q9NR96 26-1032): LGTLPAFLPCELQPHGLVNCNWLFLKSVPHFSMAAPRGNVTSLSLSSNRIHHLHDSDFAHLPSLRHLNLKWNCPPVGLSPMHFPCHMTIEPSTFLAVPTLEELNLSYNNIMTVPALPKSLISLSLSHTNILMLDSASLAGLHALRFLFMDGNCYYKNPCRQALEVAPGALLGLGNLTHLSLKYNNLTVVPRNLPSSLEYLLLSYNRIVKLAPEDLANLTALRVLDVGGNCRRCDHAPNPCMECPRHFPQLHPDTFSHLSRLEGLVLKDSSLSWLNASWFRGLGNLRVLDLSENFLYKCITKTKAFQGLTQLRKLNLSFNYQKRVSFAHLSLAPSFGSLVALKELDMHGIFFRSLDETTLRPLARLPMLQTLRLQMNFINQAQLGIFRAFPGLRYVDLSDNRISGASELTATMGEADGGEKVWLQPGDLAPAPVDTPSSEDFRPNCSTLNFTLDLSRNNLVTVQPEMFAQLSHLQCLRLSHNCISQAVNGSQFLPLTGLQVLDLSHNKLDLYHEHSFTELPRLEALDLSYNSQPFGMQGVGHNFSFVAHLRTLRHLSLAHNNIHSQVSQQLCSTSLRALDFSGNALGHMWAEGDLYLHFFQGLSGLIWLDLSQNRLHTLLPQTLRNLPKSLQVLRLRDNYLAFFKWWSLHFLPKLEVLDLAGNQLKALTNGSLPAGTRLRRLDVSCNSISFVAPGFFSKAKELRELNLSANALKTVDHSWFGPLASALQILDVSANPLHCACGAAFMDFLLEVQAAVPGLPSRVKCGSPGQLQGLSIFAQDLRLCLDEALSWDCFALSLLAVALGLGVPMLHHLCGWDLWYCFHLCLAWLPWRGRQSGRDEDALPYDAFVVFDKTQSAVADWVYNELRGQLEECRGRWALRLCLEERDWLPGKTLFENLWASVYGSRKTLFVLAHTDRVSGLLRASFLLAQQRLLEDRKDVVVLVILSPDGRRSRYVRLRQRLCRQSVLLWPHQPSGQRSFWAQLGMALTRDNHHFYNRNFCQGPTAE
# ASSAY INFO: TLR9 inhibition reporter assay (HEK-Blue SEAP);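 further: SEAP driven by IFN-β minimal promoter carrying five NF-κB and AP-1 sites, 22 h at 37 °C, compounds 0.05 nM–50 µM, inhibition scaled between agonist-plus-DMSO and reference-inhibitor wells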
# CONDITION INFO: read-out: TLR9 IC50; HEK-Blue cells overexpressing human TLR9, ODN2006 5 nM stimulation, SEAP reporter
ENDPOINT: IC50 (nM)
Enter your answer as a number in nM; do not include the unit.

Challenge: I have this compound here, Cc1c(-c2[nH]c3cnc(C4CCC(NC5COC5)CC4)c(C)c3c2C(C)C)cn2ncnc2c1C (stereo not drawn) [Example 121] , and I need its recorded IC50.
Response given: 759

Challenge: Using the record for Cc1cc(-c2[nH]c3cnc(N4CCC(N(C)C)CC4)c(F)c3c2C(C)C)cn2ncnc12 , report its IC50.
Response given: 15400

Challenge: Quick one: IC50 for COc1cc(-c2[nH]c3cnc(N4CCC(NCC5(C)COC5)CC4)cc3c2C(C)C)cn2ncnc12 ?
Response given: 1450

Challenge: Consider the compound shown here: COc1cc(-c2[nH]c3cnc(C4CCC(N(C)CC(=O)N(C)C)CC4)c(F)c3c2C(C)C)cn2ncnc12 (stereo not drawn) What is its recorded IC50?
Response given: 842
